I'd appreciate it if you could supply Optimal dose values for the items below.
- Test system: P388
- Assay Notes: Optimal dose for antitumor activity was measured in P388 cells of CDF1 male mice in vivo
- Format: functional, Mus musculus
Write down the value, and be sure its unit follows.

// known answers, use as guide
{"Smiles Data": "Cc1c2oc3c(C)c(O)c(N)c(C(=O)N[C@@H]4C(=O)N[C@H](C(C)C)C(=O)N5CCC[C@H]5C(=O)N(C)CC(=O)N(C)[C@@H](C(C)C)C(=O)O[C@@H]4C)c3nc-2c(C(=O)N[C@@H]2C(=O)N[C@H](C(C)C)C(=O)N3CCC[C@H]3C(=O)N(C)CC(=O)N(C)[C@@H](C(C)C)C(=O)O[C@@H]2C)cc1=O", "Observed Measurement": "1.2 mg/kg"}
{"Smiles Data": "CCCCNc1c(C(=O)N[C@@H]2C(=O)N[C@H](C(C)C)C(=O)N3CCC[C@H]3C(=O)N(C)CC(=O)N(C)[C@@H](C(C)C)C(=O)O[C@@H]2C)c2nc3c(C(=O)N[C@@H]4C(=O)N[C@H](C(C)C)C(=O)N5CCC[C@H]5C(=O)N(C)CC(=O)N(C)[C@@H](C(C)C)C(=O)O[C@@H]4C)ccc(C)c3oc-2c(C)c1=O", "Observed Measurement": "0.9 mg/kg"}

Each compound below has a reported value. Please supply its Optimal dose.
1. Cc1c2oc3c(C)c(OC(=O)c4ccc5ccccc5c4)cc(C(=O)N[C@@H]4C(=O)N[C@H](C(C)C)C(=O)N5CCC[C@H]5C(=O)N(C)CC(=O)N(C)[C@@H](C(C)C)C(=O)O[C@@H]4C)c3nc-2c(C(=O)N[C@@H]2C(=O)N[C@H](C(C)C)C(=O)N3CCC[C@H]3C(=O)N(C)CC(=O)N(C)[C@@H](C(C)C)C(=O)O[C@@H]2C)c(N)c1=O
2. CCCNc1c(C(=O)N[C@@H]2C(=O)N[C@H](C(C)C)C(=O)N3CCC[C@H]3C(=O)N(C)CC(=O)N(C)[C@@H](C(C)C)C(=O)O[C@@H]2C)c2nc3c(C(=O)N[C@@H]4C(=O)N[C@H](C(C)C)C(=O)N5CCC[C@H]5C(=O)N(C)CC(=O)N(C)[C@@H](C(C)C)C(=O)O[C@@H]4C)ccc(C)c3oc-2c(C)c1=O
3. Cc1c2oc3c(C)c(OC(=O)C45CC6CC(CC(C6)C4)C5)cc(C(=O)N[C@@H]4C(=O)N[C@H](C(C)C)C(=O)N5CCC[C@H]5C(=O)N(C)CC(=O)N(C)[C@@H](C(C)C)C(=O)O[C@@H]4C)c3nc-2c(C(=O)N[C@@H]2C(=O)N[C@H](C(C)C)C(=O)N3CCC[C@H]3C(=O)N(C)CC(=O)N(C)[C@@H](C(C)C)C(=O)O[C@@H]2C)c(N)c1=O

Output:
1: 0.9 mg/kg; 2: 1.2 mg/kg; 3: 0.5 mg/kg

Values compiled from ChEMBL document CHEMBL1121923.
